Could you please report measured IC50 for the items listed next?
molecular target: SARS-CoV-2 main protease (M^pro) (Severe acute respiratory syndrome coronavirus 2); test: Rapid-Fire MS Biochemical Assay measuring Mpro activity (5 nM Mpro); conditions: Table 1B, Mpro inhibition, 5 μM substrate peptide, 120 min, read-out: Rapid-Fire Assay IC50

[
  {
    "COMPOUND": "Cc1cc(N2C[C@@H](C#N)N(c3cncc4ccccc34)C2=O)ccn1 (single isomer, unassigned) [Compound 44b]",
    "REPORTED": "> 1000 nM"
  },
  {
    "COMPOUND": "N#CC1CN(C2CC(F)(F)C2)C(=O)N1c1cncc2ccccc12 (racemic) [Compound 27]",
    "REPORTED": "20 to 200 nM"
  }
]

Below is a list of compounds. For each, state its recorded IC50.
1. COc1cnc(C(F)(F)F)nc1N1C[C@@H](C#N)N(c2cncc3ccccc23)C1=O (single isomer, unassigned) [Compound 31b]
2. N#Cc1cccc(N2C[C@H](C#N)N(c3cncc4ccccc34)C2=O)c1 (single isomer, unassigned) [Compound 52a]

["> 1000 nM", "< 20 nM"]

Below is a list of compounds. For each, state its recorded IC50.
1. COc1ccc(C#N)cc1N1C[C@@H](C#N)N(c2cncc3ccccc23)C1=O (single isomer, unassigned) [Compound 15b]
2. N#C[C@@H]1CN(c2cccc(F)c2)C(=O)N1c1cncc2ccccc12 (single isomer, unassigned) [Compound 76b]
3. CC(=O)N1CC(N2C[C@@H](C#N)N(c3cncc4ccccc34)C2=O)C1 (single isomer, unassigned) [Compound 134b]

> 1000 nM
> 1000 nM
> 1000 nM

Below is a list of compounds. For each, state its recorded IC50.
1. N#C[C@@H]1CN(c2ccc(C(F)F)cc2)C(=O)N1c1cncc2ccccc12 (single isomer, unassigned) [Compound 108b]
2. COc1cc(Cl)cnc1N1C[C@@H](C#N)N(c2cncc3ccccc23)C1=O (single isomer, unassigned) [Compound 58b]
3. COc1ccc(C(F)(F)F)nc1N1C[C@@H](C#N)N(c2cncc3ccccc23)C1=O (single isomer, unassigned) [Compound 47b]
4. Cc1cc(Cl)cnc1N1C[C@@H](C#N)N(c2cncc3ccccc23)C1=O (single isomer, unassigned) [Compound 80b]
5. N#C[C@@H]1CN(c2cnnc(C(F)(F)F)c2)C(=O)N1c1cncc2ccccc12 (single isomer, unassigned) [Compound 13b]

1: > 1000 nM; 2: > 1000 nM; 3: > 1000 nM; 4: > 1000 nM; 5: > 1000 nM

Below is a list of compounds. For each, state its recorded IC50.
1. Cc1ncc(C(F)(F)F)cc1N1C[C@@H](C#N)N(c2cncc3ccccc23)C1=O (single isomer, unassigned) [Compound 88b]
2. COc1cc(Cl)cnc1N1CC(C#N)N(c2cncc3ccccc23)C1=O (racemic) [Compound 58]

1. > 1000 nM
2. 200 to 1000 nM
